Overview of reported pIC50 across a group of compounds:
Test system: HCT-116
Assay: Cytotoxicity against human HCT-116 cells assessed as inhibition of cell growth incubated for 72 hrs under hypoxic conditions by CCK-8 assay
Type: functional, cell-based
Conditions: HCT-116, 72 h
pIC50: −log10 of the molar value.
MEASURE: pIC50

COMPOUND: CN1c2ccc(F)cc2C(=O)N2CCc3c([nH]c4ccc(OC(=O)/C=C/C(=O)OCc5cc6ccc(OCc7ccc([N+](=O)[O-])cc7)cc6oc5=O)cc34)C21 (configuration not stated)
SUBJECT OF TEST: HCT-116
RECORDED MEASUREMENT: 7.15
//
COMPOUND: CN1c2ccc(F)cc2C(=O)N2CCc3c([nH]c4ccc(O)cc34)C21 (configuration not stated)
SUBJECT OF TEST: HCT-116
RECORDED MEASUREMENT: 7.82

* * *

Assay: Cytotoxicity against human HUVEC cells assessed as inhibition of cell growth incubated for 72 hrs under normoxic condition by CCK-8 assay
Type: toxicity, cell-based

MOLECULE: CN1c2ccc(F)cc2C(=O)N2CCc3c([nH]c4ccc(O)cc34)C21 (configuration not stated)
IC50 at 72 h, µM: 0.044
--
MOLECULE: CN1c2ccc(F)cc2C(=O)N2CCc3c([nH]c4ccc(OC(=O)/C=C/C(=O)OCc5cc6ccc(OCc7ccc([N+](=O)[O-])cc7)cc6oc5=O)cc34)C21 (configuration not stated)
IC50 at 72 h, µM: 0.12

* * *

Experiment: Prodrug activation in phosphate buffer saline at pH 7.4 assessed as Escherichia coli nitroreductase mediated 3-fluoro-10-hydroxy-14-methyl-8,13,13b,14-tetrahydroindolo[2',3':3,4]pyrido[2,1-b]quinazolin-5(7H)-one formation by measuring fluorescence emission intensity at 25 uM incubated for 2 hrs in presence of NADH by fluorescence spectrophotometric analysis
Settings: isolated protein, pH 7.4, 2 h

COMPOUND: CN1c2ccc(F)cc2C(=O)N2CCc3c([nH]c4ccc(OC(=O)CCC(=O)OCc5cc6ccc(OCc7ccc([N+](=O)[O-])cc7)cc6oc5=O)cc34)C21 (centres undefined)
Drug metabolism: metabolite_detected
--
COMPOUND: CN1c2ccc(F)cc2C(=O)N2CCc3c([nH]c4ccc(OC(=O)OCc5cc6ccc(OCc7ccc([N+](=O)[O-])cc7)cc6oc5=O)cc34)C21 (centres undefined)
Drug metabolism: metabolite_detected
--
COMPOUND: CN1c2ccc(F)cc2C(=O)N2CCc3c([nH]c4ccc(OC(=O)/C=C/C(=O)OCc5cc6ccc(OCc7ccc([N+](=O)[O-])cc7)cc6oc5=O)cc34)C21 (centres undefined)
Drug metabolism: metabolite_detected

* * *

Overview of reported half-life across a group of molecules:
Test: Metabolic stability in ICR mouse liver microsomes assessed as terminal half life
Assay type: ADME, Microsome
Settings: read-out: beta t1/2

MOLECULE: CN1c2ccc(F)cc2C(=O)N2CCc3c([nH]c4ccc(OC(=O)/C=C/C(=O)OCc5cc6ccc(OCc7ccc([N+](=O)[O-])cc7)cc6oc5=O)cc34)C21 (configuration not stated)
half-life: 9.53 h
--
MOLECULE: CN1c2ccc(F)cc2C(=O)N2CCc3c([nH]c4ccc(O)cc34)C21 (configuration not stated)
half-life: 0.164 h

* * *

Overview of reported IC50 across a group of compounds:
Tested on: A549
Experiment: Cytotoxicity against human A549 cells assessed as inhibition of cell growth incubated for 72 hrs under hypoxic conditions by CCK-8 assay
Format: functional, cell-based
Details: A549, 72 h

COMPOUND: CN1c2ccc(F)cc2C(=O)N2CCc3c([nH]c4ccc(OC(=O)/C=C/C(=O)OCc5cc6ccc(OCc7ccc([N+](=O)[O-])cc7)cc6oc5=O)cc34)C21 (configuration not stated)
UNITS: nM
IC50: 38

COMPOUND: CN1c2ccc(F)cc2C(=O)N2CCc3c([nH]c4ccc(O)cc34)C21 (configuration not stated)
UNITS: nM
IC50: 15
